The values you see were collected from PubChem BioAssay AID180.

System: BDF1 mice, Adenocarcinoma 755 s.c., tumor weight T/C
METHOD: NCI In Vivo Anticancer Drug Screen. Data for tumor model Adenocarcinoma 755 (subcutaneous) in B6D2F1 (BDF1) mice
CONDITIONS USED: endpoint: mean tumor weight; dose: 15.0 mg/kg/injection; schedule: Q01DX011 (ip); vehicle: methylcellulose (MC); higher = larger tumour
MEASURED ENDPOINT: T/C

Here are 5 compounds together with their reported answers.
{"SMILES STRUCTURE": "Cc1ccccc1Nc1cc(Cl)nc(N)n1", "T/C": "73 % of control"}
{"SMILES STRUCTURE": "CCc1c(Cl)nc(N)nc1Nc1ccccc1C", "T/C": "115 % of control"}
{"SMILES STRUCTURE": "Nc1nc(Cl)cc(Nc2ccc(CCO)cc2)n1", "T/C": "101 % of control"}
{"SMILES STRUCTURE": "O=c1[nH]cc(Br)c(=S)[nH]1", "T/C": "64 % of control"}
{"SMILES STRUCTURE": "CCCCNc1nc(SCc2ccc(Cl)cc2Cl)ncc1C", "T/C": "78 % of control"}

Query Cc1cnc(SCc2ccccc2Cl)nc1N(C)C yields T/C of 89 % of control

T/C reading for CCc1c(Cl)nc(N)nc1Nc1ccccc1Br : 96 % of control

Sample CC(=O)Nc1nc(SCc2ccccc2)c2ncn(C(C)=O)c2n1 ; T/C observed: 4 % of control

So for Cc1cn(C2CCCCC2)c(=O)n(-c2ccccc2)c1=O , the logged T/C turned out to be 108 % of control

The compound identified as CSc1ncc(Br)c(Nc2ccccc2Cl)n1 registered its T/C at 110 % of control

# T/C (compound: CCN(CC)c1nc(SCc2ccc(Cl)cc2Cl)ncc1C ) is 56 % of control

T/C measured on Nc1nc(Cl)cc(Nc2ccccc2Br)n1 = 66 % of control

Reported T/C of O=C(Nc1ccc(C2=NCCN2)cc1)c1cccc(C(=O)Nc2ccc(C3=NCCN3)cc2)c1 : 86 % of control
